src = patent US8765746B2

- Study System: VPS34 (Homo sapiens, UniProt Q8NEB9)
- Construct: GST (N); host or cells: SF9 insect cells (baculovirus)
- Sequence (Q8NEB9 whole entry): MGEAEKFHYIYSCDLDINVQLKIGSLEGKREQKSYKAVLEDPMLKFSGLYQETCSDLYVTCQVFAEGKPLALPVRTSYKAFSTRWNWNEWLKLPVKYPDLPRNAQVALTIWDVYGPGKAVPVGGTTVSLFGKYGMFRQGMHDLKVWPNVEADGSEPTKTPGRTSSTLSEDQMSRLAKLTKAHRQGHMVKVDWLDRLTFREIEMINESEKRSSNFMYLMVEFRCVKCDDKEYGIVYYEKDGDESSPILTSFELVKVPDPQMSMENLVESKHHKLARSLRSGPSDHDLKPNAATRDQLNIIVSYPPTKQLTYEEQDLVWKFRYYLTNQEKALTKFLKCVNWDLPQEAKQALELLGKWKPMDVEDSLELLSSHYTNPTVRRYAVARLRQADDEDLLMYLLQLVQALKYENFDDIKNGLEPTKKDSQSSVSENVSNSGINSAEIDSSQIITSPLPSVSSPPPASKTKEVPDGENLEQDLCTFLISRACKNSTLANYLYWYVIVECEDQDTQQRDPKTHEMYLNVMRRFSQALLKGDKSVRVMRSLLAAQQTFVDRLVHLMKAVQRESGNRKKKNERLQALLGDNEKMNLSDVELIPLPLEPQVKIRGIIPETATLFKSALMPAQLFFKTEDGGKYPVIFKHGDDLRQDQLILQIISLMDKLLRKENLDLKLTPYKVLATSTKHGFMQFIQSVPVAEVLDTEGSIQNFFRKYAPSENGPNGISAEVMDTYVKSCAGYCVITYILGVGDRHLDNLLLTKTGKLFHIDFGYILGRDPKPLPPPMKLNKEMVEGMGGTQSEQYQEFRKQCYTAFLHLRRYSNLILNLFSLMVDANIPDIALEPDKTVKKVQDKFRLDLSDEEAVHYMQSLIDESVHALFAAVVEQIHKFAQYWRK
- Test Details: Human VPS34 enzyme assay (Adapta Universal Kinase Assay)
- Type: biochemical
- Condition Parameters: 1 h, read-out: VPS34 % ihn
Attribute Measured: inhibition at 1.11 µM
Could you kindly put the unit after your number?

Consider the reported inhibition at 1.11 µM for these compounds:
1) O=C1NCCC(c2ccc(Cl)cc2)c2cc(-c3ccncc3)sc21 (racemic) [Compound 8] = 2.55%
2) CN1CCC(c2ccc(Cl)cc2)c2cc(N3CCOCC3)sc2C1=O (stereo not shown) = 15.1%
3) O=C1CCC(c2ccc(Cl)cc2)c2cc(-c3ccncc3)sc21 (single isomer, unassigned) [Compound 22] = 4.4%
4) O=C1NCCC(c2ccc(Cl)c(Cl)c2)c2cc(N3CCOCC3)sc21 (stereo not shown) = 47.8%
5) O=C1NCCC(c2ccc(Cl)cc2)c2nc(N3CCOCC3)sc21 (stereo not shown) = 55.8%
6) CC1(C)CC(=O)c2sc(-c3ccncc3)cc2C1c1ccc(Cl)cc1 (stereo not shown) = 0.1%
7) COc1cc(C2CC(=O)c3sc(N4CCOCC4)cc32)ccc1Cl (stereo not shown) = 5.41%
8) CC(=O)Nc1cc(-c2cc3c(s2)C(=O)CCC3c2ccc(Cl)cc2)ccn1 (stereo not shown) = 9.6%
9) O/N=C1/CCC(c2ccc(Cl)cc2)c2cc(-c3ccncc3)sc21 (stereo not shown) = -4.1%

IN: If you can, please state the reported inhibition at 1.11 µM value of O=C1NCCC(c2ccc(Cl)cc2)c2cc(-c3ccncc3)sc21 (single isomer, unassigned) [Compound 21] .
OUT: 9.1%
